B1: BTBD1 (parent)
chain: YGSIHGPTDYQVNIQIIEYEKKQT

# Variants of: B1
# procedure.details: protein stability index of a GFP-peptide fusion (GPS, HEK-293T) (PSI 1-6); higher = more stable;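 also: lentivirally expressed fusions sorted by FACS into six bins by GFP to DsRed ratio, PSI derived from sequencing read proportions per bin multiplied by bin number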
# condition.info: c terminus: a fixed tail appended
The label depends only on protein stability index: t if it is at least 3, f if it is smaller.

entry.sequence	group.label
YGSIHGPTDYQVNIQDIEYEKKQT [I16D]	t
YGSIHGPSDYQVNIQIIEYEKKQT [T8S]	t
YGSIHGPTDYQVFIQIIEYEKKQT [N13F]	f
YGSIHGPTDYQVAIQIIEYEKKQT [N13A]	f
YGSIHGPTDYQVNIQIIEYEKKQA [T24A]	t

Proceed to the following item.
Say whether YGSIEGPTDYQVNIQIIEYEKKQT [H5E] shows protein stability index of 3 or more. t
